Values were extracted from the Deep4Chem optical property database.

Method Description: photoluminescence quantum yield (fraction); solvent given as SMILES
Cond: in Cc1ccccc1
Entry flag: 1 if photoluminescence quantum yield reaches 0.4; -1 if it does not.

See these solved cases before continuing.
{"Structure As Smiles": "N#Cc1cc(-n2c3ccccc3c3ccccc32)c(-n2c3ccccc3c3ccccc32)cc1C#N", "Class Label": 1}
{"Structure As Smiles": "CC1(C)OB(c2ccc3ccc4cccc5ccc2c3c45)OC1(C)C", "Class Label": 1}
{"Structure As Smiles": "c1ccc([B-]2(c3ccccc3)Oc3ccc4ccccc4c3-c3c4ccccc4cc[n+]32)cc1", "Class Label": -1}
{"Structure As Smiles": "CCCC1=Cc2nc1ccc1[nH]c(cc1CCC)c1nc(ccc3[nH]c2cc3CCC)C(CCC)=C1", "Class Label": -1}
{"Structure As Smiles": "COc1cc(N(c2ccccc2)c2ccc(C=C(C#N)C#N)c(OC)c2)ccc1C=C(C#N)C#N", "Class Label": -1}
{"Structure As Smiles": "c1ccc(-c2nc(-c3ccccc3)nc(-c3ccc(-n4c5ccccc5c5c4c4ccccc4n5-c4ccccc4)cc3)n2)cc1", "Class Label": 1}

Exam item: decide whether the reported photoluminescence quantum yield for N#Cc1c(-n2c3ccccc3c3ccccc32)cc(N2c3ccccc3C(c3ccccc3)(c3ccccc3)c3ccccc32)cc1-n1c2ccccc2c2ccccc21 is at least 0.4.
-1

Cool, now CN(C)c1ccc(-c2c(/C=C3/C=Cc4ccccc4N3C)c(=O)c2=O)cc1
-1

And for O=C(c1ccncc1)c1ccc(-n2c3ccccc3c3ccccc32)cc1 ?
-1

* * *

Method Description: photoluminescence quantum yield (fraction); solvent given as SMILES
Cond: in CC#N
Below, each of the compounds is paired with its reported photoluminescence quantum yield value.

Below: 5 compounds and their reported photoluminescence quantum yield.
{"Compound": "COC(=O)c1ccc(C#Cc2ccc(N(C)C)cc2)cc1", "Result": 0.134}
{"Compound": "c1ccc(-c2cc(-c3ccccc3)[o+]c(-c3ccccc3)c2)cc1", "Result": 0.4}
{"Compound": "COC(=O)c1cc(=O)n(Cc2ccccc2)c2cc(-c3ccc(N(C)C)cc3)sc12", "Result": 0.05}
{"Compound": "COC(=O)c1cc(=O)n(C)c2cc(-c3ccc(OC)cc3)sc12", "Result": 0.77}
{"Compound": "c1ccc2c(c1)CCc1c-2cnc2c1-c1ccccc1CC2", "Result": 0.69}

Could you share which photoluminescence quantum yield value was measured for CCC1(CC)c2cc(N(C)C)ccc2-c2ccc(C(F)(F)F)cc21 ?
0.04

Okay, and Oc1ccc2ccccc2c1/C=N/c1cc2ccccc2cc1/N=C/c1c(O)ccc2ccccc12 ?
0.042

// query: CCNc1cc2c(cc1C)C(c1ccccc1C(=O)O)=C1CCCC(/C=C/C3=[N+](C)c4ccccc4C3(C)C)=C1O2
0.32

* * *

Method Description: photoluminescence quantum yield (fraction); solvent given as SMILES
Cond: in ClCCl
Attribute Measured: photoluminescence quantum yield
Please state the value as a number alone, without comment.

Look over these answered cases.
{"Structure As Smiles": "N#Cc1ccc(-n2c(-c3ccc(-c4ccc(-n5c6ccccc6c6ccccc65)cc4)s3)nc3c4ccccc4c4ccccc4c32)c2ccccc12", "photoluminescence quantum yield": 0.78}
{"Structure As Smiles": "c1ccc(N(c2ccccc2)c2ccc(-c3ccc4c(c3)C3(c5ccccc5Oc5ccccc53)c3cc(-c5ccc(N(c6ccccc6)c6ccccc6)cc5)ccc3-4)cc2)cc1", "photoluminescence quantum yield": 0.91}
{"Structure As Smiles": "CC(C)(C)c1ccc(C#Cc2cc3ccc4cc(C#Cc5ccc(C(C)(C)C)cc5)cc5ccc(c2)c3c45)cc1", "photoluminescence quantum yield": 0.14}
{"Structure As Smiles": "Cc1cn2cc(-c3ccc(-c4ccccc4)cc3)[n-][n+]2c1", "photoluminescence quantum yield": 0.27}

I am curious: what photoluminescence quantum yield value has been reported for F[B-]1(F)n2cccc2C=C2c3ccccc3C(c3ccc[nH]3)=[N+]21 ?
0.8

Input COc1ccc(C#Cc2c3cc4ccccc4cc3c(C#C[Si](C(C)C)(C(C)C)C(C)C)c3cc4ccccc4cc23)cc1
0.05

Entry c1cc2c([nH]c3c4[nH]c5sccc5c4c4nsnc4c23)s1 please
0.27

Similarly, CCCCCCCCC1(CCCCCCCC)c2cc(C=O)ccc2-c2ccc(/C=C/c3ccc(N(c4ccccc4)c4ccccc4)cc3)cc21 ?
0.7

* * *

Method Description: photoluminescence quantum yield (fraction); solvent given as SMILES
Cond: in c1ccc2c(c1)c1ccccc1n2-c1ccc(-c2ccc(-n3c4ccccc4c4ccccc43)cc2)cc1
Hi! Just check whether photoluminescence quantum yield is below 0.7. Below gives Criterion met, equal or above gives Criterion not met.

Here's what some known entries look like.
{"Structure As Smiles": "CC(C)(C)c1ccc2c(c1)c1cc(C(C)(C)C)ccc1n2-c1ccc(-c2ccc3c(c2)C(=O)c2ccc(-c4ccc(-n5c6ccc(C(C)(C)C)cc6c6cc(C(C)(C)C)ccc65)cc4)cc2C3=O)cc1", "Class Label": "Criterion met"}
{"Structure As Smiles": "N#Cc1cc(-n2c3ccccc3c3ccccc32)c(-n2c3ccccc3c3cc(Br)ccc32)cc1C#N", "Class Label": "Criterion met"}
{"Structure As Smiles": "N#Cc1cc(-n2c3ccccc3c3ccccc32)c(-n2c3ccccc3c3ccccc32)cc1C#N", "Class Label": "Criterion met"}
{"Structure As Smiles": "CC1(C)c2ccccc2N(c2ccc3c(c2)-c2cc(N4c5ccccc5C(C)(C)c5ccccc54)ccc2P3(=O)c2ccccc2)c2ccccc21", "Class Label": "Criterion met"}
{"Structure As Smiles": "O=C1c2ccc(-c3ccc(N(c4ccccc4)c4ccccc4)cc3)cc2S(=O)(=O)c2cccc(-c3ccc(N(c4ccccc4)c4ccccc4)cc3)c21", "Class Label": "Criterion met"}

photoluminescence quantum yield strictly < 0.7 for this molecule? O=C(c1ccc(N2c3ccccc3Sc3ccccc32)cc1)c1ccc2sc3ccccc3c2c1
Criterion not met

Same again, this time with CC1(C)c2ccccc2N(c2ccc(C(=O)c3cc(C(=O)c4ccc(N5c6ccccc6C(C)(C)c6ccccc65)cc4)cc(C(=O)c4ccc(N5c6ccccc6C(C)(C)c6ccccc65)cc4)c3)cc2)c2ccccc21
Criterion not met

// query: COc1ccc2c(c1)c1cc(OC)ccc1n2-c1ccc2c(c1)-c1cc(-n3c4ccc(OC)cc4c4cc(OC)ccc43)ccc1P2(=O)c1ccccc1
Criterion not met

Repeat with CCCCCCN1C(=O)C(c2ccc(-c3ccc(-n4c5ccccc5c5ccccc54)cc3)cc2)=C(c2ccc(-c3ccc(-n4c5ccccc5c5ccccc54)cc3)cc2)C1=O
Criterion met

Another molecule: O=P1(c2ccccc2)c2cc(N3c4ccccc4Oc4ccccc43)ccc2-c2ccc(N3c4ccccc4Oc4ccccc43)cc21
Criterion met

* * *

Method Description: photoluminescence quantum yield (fraction); solvent given as SMILES
Cond: in CCCO
Measured photoluminescence quantum yield, listed per entry.
Please give the numeric answer without any surrounding text.

Take a look at these entries with their results.
{"Structure As Smiles": "Nc1ccc2c(c1)C(=O)O/C2=C\\c1ccc(Cl)cc1", "photoluminescence quantum yield": 0.18}
{"Structure As Smiles": "CC(=O)Nc1ccc(/C=C2\\OC(=O)c3cc(N)ccc32)cc1", "photoluminescence quantum yield": 0.03}
{"Structure As Smiles": "c1csc(-c2cnc(-c3cccs3)c3nonc23)c1", "photoluminescence quantum yield": 0.22}
{"Structure As Smiles": "COc1ccc(/C=C2\\OC(=O)c3ccccc32)cc1", "photoluminescence quantum yield": 0.13}

Query (compound): C#CCNC1=C2C=CC=[N+]2[B-](F)(F)n2cccc21 ; field requested: photoluminescence quantum yield
0.741

Could you do the same for CN(C)c1ccc(/C=C/C=C/c2nc3ccccc3s2)cc1 , please?
0.0054

Next compound: Cc1cnc(NC(=O)C2=C(O)c3ccccc3S(=O)(=O)N2C)s1
0.0164

Another compound to look at: COCCOCCOCCOc1cc(C=O)c(OCCOCCOCCOC)cc1C=O
0.16

Same question for COc1ccc(/C=C/C(=O)c2ccccc2O)cc1OC please.
0.37

Then this compound: COCCOCCOCCOCCOc1ccc(OCCOCCOCCOCCOC)c(C=O)c1
0.27

Now the compound COCCOCCOc1cc(C=O)c(OCCOCCOC)cc1C=O
0.15

Also check C#CCN1C(=O)/C(=C/c2cc(OC(C)C)ccc2OC(C)C)N=C1C
0.08

Same for c1ccc2c(c1)[nH]c1c3ccccc3[nH]c21
0.89

Now the compound COc1cccc2c1C(=O)c1ccccc1-2
0.021

Check O=C1/C(=C/C=C/c2cc3c4c(c2)CCCN4CCC3)CC/C1=C\C=C\c1cc2c3c(c1)CCCN3CCC2 too.
0.042

Repeat for the following compound: CCN1C(=CC=Cc2n(CC)c3cc(Cl)c(Cl)cc3[n+]2CC)N(CC)c2cc(Cl)c(Cl)cc21
0.033

Moving on to the next compound: CN1C(C(=O)Nc2ccccn2)=C([O-])c2sccc2S1(=O)=O
0.0085

* * *

Method Description: photoluminescence quantum yield (fraction); solvent given as SMILES
Cond: in CCO
Catalogue of photoluminescence quantum yield readings, one per entry.
Response field accepts a number only; no unit should be typed.

Below: 5 molecules and their reported photoluminescence quantum yield.
{"Molecule": "CN(C)c1cccc2c1C(=O)c1ccccc1-2", "photoluminescence quantum yield": 0.004}
{"Molecule": "CN(C)c1ccc(/C=C/c2ccc(-c3cc(-c4ccccn4)nc(-c4ccccn4)c3)cc2)cc1", "photoluminescence quantum yield": 0.24}
{"Molecule": "O=Cc1ccc(-c2ccc(C3=CCC(c4ccccc4)CC3)s2)s1 (stereo not given)", "photoluminescence quantum yield": 0.29}
{"Molecule": "CCC1=C(C)C2=C(c3c(C)cc(C)nc3-c3cccs3)c3c(C)c(CC)c(C)n3[B-](F)(F)[N+]2=C1C", "photoluminescence quantum yield": 0.47}
{"Molecule": "COc1ccc(/C=C/C(=O)c2ccccc2O)cc1OC", "photoluminescence quantum yield": 0.15}

In the following, a different molecule is considered.
Which value of photoluminescence quantum yield has been reported for CCN(CC)c1ccc(C=Cc2nc3nc4ccccc4nc3s2)c(OC)c1 in the records?
0.32
